All values here come from patent US20030199671A1.

system: mouse IgG; format: binding; settings: Table 14; average ligand density 1.8 μM/ml
Listing: % IgG Capture - Batch Binding, Mouse IgG of selected substances

Record Ac-GDNPMCWKKSWWEDAYCINHGTPGPEGGGK-NH2 (not fully specified (bridges); printed as Ac-GDNPMCWKKSWWEDAYCINHGTPGPEGGGK-NH2; cysteine pairing not given here) [DX596] , field % IgG Capture - Batch Binding, Mouse IgG: 5%

Record Ac-GDSWNCAFHHNEMVWCDDGGTPGPEGGGK-NH2 (not fully specified (bridges); printed as Ac-GDSWNCAFHHNEMVWCDDGGTPGPEGGGK-NH2; cysteine pairing not given here) [DX597] , field % IgG Capture - Batch Binding, Mouse IgG: 3%

Record Ac-GDRRACSRDWSGALVWCAGHEPGPEGGGK-NH2 (not fully specified (bridges); printed as Ac-GDRRACSRDWSGALVWCAGHEPGPEGGGK-NH2; cysteine pairing not given here) [DX253] , field % IgG Capture - Batch Binding, Mouse IgG: 2%

Record Ac-GDNPMCWRASWWEDAYCINHEPGPEGGGK-NH2 (not fully specified (bridges); printed as Ac-GDNPMCWRASWWEDAYCINHEPGPEGGGK-NH2; cysteine pairing not given here) [DX1071] , field % IgG Capture - Batch Binding, Mouse IgG: 8%

* * *

Listing: Batch Binding (% Capture of Total Load) hIgG3 of selected substances
target: IgG3 (Homo sapiens, UniProt P01860); assay type: binding; design: all human subtypes derived from myeloma patients; purchased Calbiochem 400124; host or cells: myeloma patients; conditions: Table 20; average ligand density 1.9 μmole/ml
Sequence (P01860 1-377 isoform P01860-1): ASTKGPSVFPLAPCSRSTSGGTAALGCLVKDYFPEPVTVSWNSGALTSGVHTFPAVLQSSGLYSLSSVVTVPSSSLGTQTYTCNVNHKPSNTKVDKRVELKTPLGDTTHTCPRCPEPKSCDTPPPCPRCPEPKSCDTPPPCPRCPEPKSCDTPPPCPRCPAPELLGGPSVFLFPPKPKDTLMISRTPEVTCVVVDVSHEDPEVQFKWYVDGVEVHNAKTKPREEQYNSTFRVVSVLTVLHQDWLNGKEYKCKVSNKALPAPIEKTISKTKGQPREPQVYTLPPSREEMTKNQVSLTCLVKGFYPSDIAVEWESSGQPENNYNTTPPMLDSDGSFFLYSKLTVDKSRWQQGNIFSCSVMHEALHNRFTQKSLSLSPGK
Non-standard residues stand in square brackets, D forms with d. Nle = CCCC[C@H](N)C(=O)O
Give the number; % is assumed, so skip it.

substance: Ac-[Nle]CVYTTWGELIWCDNHEPGPEGGGK-NH2 (not fully specified (bridges); printed as Ac-[Nle]CVYTTWGELIWCDNHEPGPEGGGK-NH2; cysteine pairing not given here) [DX1068]
reported: 0
//
substance: Ac-VCVYTTWGELIWCDNHEPGPEGGGK-NH2 (not fully specified (bridges); printed as Ac-VCVYTTWGELIWCDNHEPGPEGGGK-NH2; cysteine pairing not given here) [DX1067]
reported: 0
//
substance: Ac-ACVYTTWGELIWCDNHEPGPEGGGK-NH2 (not fully specified (bridges); printed as Ac-ACVYTTWGELIWCDNHEPGPEGGGK-NH2; cysteine pairing not given here) [DX1064]
reported: 0

Record Ac-DHMCVYTTWGELIWCDNHEPGPEGGGK-NH2 (not fully specified (bridges); printed as Ac-DHMCVYTTWGELIWCDNHEPGPEGGGK-NH2; cysteine pairing not given here) [DX1062] , field Batch Binding (% Capture of Total Load) hIgG3: 0

Record Ac-EHMCVYTTWGELIWCDNHEPGPEGGGK-NH2 (not fully specified (bridges); printed as Ac-EHMCVYTTWGELIWCDNHEPGPEGGGK-NH2; cysteine pairing not given here) [DX1063] , field Batch Binding (% Capture of Total Load) hIgG3: 0

Record Ac-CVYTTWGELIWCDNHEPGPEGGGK-NH2 (not fully specified (bridges); printed as Ac-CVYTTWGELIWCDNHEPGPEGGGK-NH2; cysteine pairing not given here) [DX1069] , field Batch Binding (% Capture of Total Load) hIgG3: 2

* * *

target: human IgG1 (Homo sapiens, UniProt P01857); construct: all human subtypes derived from myeloma patients; purchased Calbiochem 400120; host or cells: myeloma patients; type: binding; conditions: Table 20; average ligand density 1.9 μmole/ml
Sequence (P01857 1-330 isoform P01857-1): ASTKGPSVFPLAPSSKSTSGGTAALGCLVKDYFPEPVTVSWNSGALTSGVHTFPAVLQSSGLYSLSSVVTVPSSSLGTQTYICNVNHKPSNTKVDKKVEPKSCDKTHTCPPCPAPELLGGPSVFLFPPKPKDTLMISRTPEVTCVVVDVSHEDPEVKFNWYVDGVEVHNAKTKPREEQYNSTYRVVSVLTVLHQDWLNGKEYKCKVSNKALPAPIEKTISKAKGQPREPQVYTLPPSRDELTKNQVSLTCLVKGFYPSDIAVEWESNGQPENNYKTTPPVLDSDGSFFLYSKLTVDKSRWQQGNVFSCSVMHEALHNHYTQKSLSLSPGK
measurement_label: Batch Binding (% Capture of Total Load) hIgG1 (%)
Give the number; % is assumed, so skip it.

substance: Ac-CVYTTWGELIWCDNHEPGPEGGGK-NH2 (not fully specified (bridges); printed as Ac-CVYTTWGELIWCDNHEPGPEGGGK-NH2; cysteine pairing not given here) [DX1069]
target_or_test_system: human IgG1 (Homo sapiens, UniProt P01857)
reported: 77

Continue with the substance presented below.
Record Ac-DHMCVYTTWGELIWCDNHEPGPEGGGK-NH2 (not fully specified (bridges); printed as Ac-DHMCVYTTWGELIWCDNHEPGPEGGGK-NH2; cysteine pairing not given here) [DX1062] , field Batch Binding (% Capture of Total Load) hIgG1: 73

* * *

Listing: hIgG1 elution pH 3.0 (% of Total Load) of selected substances
target: human IgG1 (Homo sapiens, UniProt P01857); construct: all human subtypes derived from myeloma patients; purchased Calbiochem 400120; host or cells: myeloma patients; format: binding; details: Table 13
Give the number; % is assumed, so skip it.

Example entries and their recorded answers appear below.
substance: Ac-GDNPMCWRAHWWEDAYCINHEPGPEGGGK-NH2 (not fully specified (bridges); printed as Ac-GDNPMCWRAHWWEDAYCINHEPGPEGGGK-NH2; cysteine pairing not given here) [DX1072]
hIgG1 elution pH 3.0 (% of Total Load) (%): 27

substance: Ac-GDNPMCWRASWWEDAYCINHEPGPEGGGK-NH2 (not fully specified (bridges); printed as Ac-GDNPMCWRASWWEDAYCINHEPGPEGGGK-NH2; cysteine pairing not given here) [DX1071]
hIgG1 elution pH 3.0 (% of Total Load) (%): 4

# lookup: Ac-GDWGECTVTSYGELIWCGGLEPGPEGGGK-NH2 (not fully specified (bridges); printed as Ac-GDWGECTVTSYGELIWCGGLEPGPEGGGK-NH2; cysteine pairing not given here) [DX1070] on human IgG1 (Homo sapiens, UniProt P01857), hIgG1 elution pH 3.0 (% of Total Load) = 22

# lookup: Ac-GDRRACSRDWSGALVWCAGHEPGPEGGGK-NH2 (not fully specified (bridges); printed as Ac-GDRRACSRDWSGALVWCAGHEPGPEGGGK-NH2; cysteine pairing not given here) [DX253] on human IgG1 (Homo sapiens, UniProt P01857), hIgG1 elution pH 3.0 (% of Total Load) = 75

* * *

biological target: human IgG2 (Homo sapiens); construct: all human subtypes derived from myeloma patients; purchased Calbiochem 400122; host or cells: myeloma patients; assay type: binding; conditions: peptide immobilized on NHS activated sepharose 4 fast flow, target ligand density 2.0 μmole/ml; batch filterplate; hIgG2
Sequence (P01859 1-326 isoform P01859-1): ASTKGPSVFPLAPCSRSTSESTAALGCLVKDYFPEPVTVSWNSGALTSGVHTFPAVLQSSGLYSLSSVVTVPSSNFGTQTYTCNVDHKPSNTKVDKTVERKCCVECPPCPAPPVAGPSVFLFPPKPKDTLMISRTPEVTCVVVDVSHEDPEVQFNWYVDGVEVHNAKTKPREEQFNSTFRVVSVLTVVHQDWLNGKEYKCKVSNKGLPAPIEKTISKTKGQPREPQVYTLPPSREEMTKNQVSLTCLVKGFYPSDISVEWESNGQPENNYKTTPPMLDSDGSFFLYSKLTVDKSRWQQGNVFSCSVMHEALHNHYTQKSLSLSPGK
Define the label as 1 when Batch Binding (% Capture of Total Load) hIgG2 is strictly less than 80% and as 0 in all remaining cases.

Some entries whose results are on file:
substance: Ac-ERACSRDWSGALVWCAGHEPGPEGGGK-NH2 (not fully specified (bridges); printed as Ac-ERACSRDWSGALVWCAGHEPGPEGGGK-NH2; cysteine pairing not given here) [DX1141]
class_label: 1

substance: Ac-TCSRDWSGALVWCAGHEPGPEGGGK-NH2 (not fully specified (bridges); printed as Ac-TCSRDWSGALVWCAGHEPGPEGGGK-NH2; cysteine pairing not given here) [DX1143]
class_label: 0

substance: Ac-ACSRDWSGALVWCAGHEPGPEGGGK-NH2 (not fully specified (bridges); printed as Ac-ACSRDWSGALVWCAGHEPGPEGGGK-NH2; cysteine pairing not given here) [DX1142]
class_label: 1

substance: Ac-ECSRDWSGALVWCAGHEPGPEGGGK-NH2 (not fully specified (bridges); printed as Ac-ECSRDWSGALVWCAGHEPGPEGGGK-NH2; cysteine pairing not given here) [DX1144]
class_label: 0

Please look at the following substance next.
Threshold test, Batch Binding (% Capture of Total Load) hIgG2 < 80%: Ac-VCSRDWSGALVWCAGHEPGPEGGGK-NH2 (not fully specified (bridges); printed as Ac-VCSRDWSGALVWCAGHEPGPEGGGK-NH2; cysteine pairing not given here) [DX1145]
1

* * *

biological target: IgG4 (Homo sapiens, UniProt P01861); format: binding; set-up: all human subtypes derived from myeloma patients; purchased Calbiochem 400126; host or cells: myeloma patients; settings: peptide immobilized on NHS activated sepharose 4 fast flow, target ligand density 2.0 μmole/ml; batch filterplate; hIgG4
Sequence (P01861 1-327 isoform P01861-1): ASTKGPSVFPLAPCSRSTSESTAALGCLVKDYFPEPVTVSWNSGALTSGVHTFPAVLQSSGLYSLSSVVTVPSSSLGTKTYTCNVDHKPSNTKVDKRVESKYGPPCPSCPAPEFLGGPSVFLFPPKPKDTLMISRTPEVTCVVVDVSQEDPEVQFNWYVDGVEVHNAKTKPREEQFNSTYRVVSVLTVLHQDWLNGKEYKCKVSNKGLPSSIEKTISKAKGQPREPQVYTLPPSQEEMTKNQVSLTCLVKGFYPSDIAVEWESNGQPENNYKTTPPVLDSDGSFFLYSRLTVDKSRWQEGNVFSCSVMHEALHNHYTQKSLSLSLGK
Listing: Batch Binding (% Capture of Total Load) hIgG4 of selected substances
Give the number; % is assumed, so skip it.

substance: Ac-VCSRDWSGALVWCAGHEPGPEGGGK-NH2 (not fully specified (bridges); printed as Ac-VCSRDWSGALVWCAGHEPGPEGGGK-NH2; cysteine pairing not given here) [DX1145]
reported: 42

Record Ac-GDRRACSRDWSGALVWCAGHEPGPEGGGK-NH2 (not fully specified (bridges); printed as Ac-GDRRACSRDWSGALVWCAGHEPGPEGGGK-NH2; cysteine pairing not given here) [DX253] , field Batch Binding (% Capture of Total Load) hIgG4: 58

Record Ac-ECSRDWSGALVWCAGHEPGPEGGGK-NH2 (not fully specified (bridges); printed as Ac-ECSRDWSGALVWCAGHEPGPEGGGK-NH2; cysteine pairing not given here) [DX1144] , field Batch Binding (% Capture of Total Load) hIgG4: 61

Record Ac-ERACSRDWSGALVWCAGHEPGPEGGGK-NH2 (not fully specified (bridges); printed as Ac-ERACSRDWSGALVWCAGHEPGPEGGGK-NH2; cysteine pairing not given here) [DX1141] , field Batch Binding (% Capture of Total Load) hIgG4: 2

Record Ac-TCSRDWSGALVWCAGHEPGPEGGGK-NH2 (not fully specified (bridges); printed as Ac-TCSRDWSGALVWCAGHEPGPEGGGK-NH2; cysteine pairing not given here) [DX1143] , field Batch Binding (% Capture of Total Load) hIgG4: 55

Record Ac-ACSRDWSGALVWCAGHEPGPEGGGK-NH2 (not fully specified (bridges); printed as Ac-ACSRDWSGALVWCAGHEPGPEGGGK-NH2; cysteine pairing not given here) [DX1142] , field Batch Binding (% Capture of Total Load) hIgG4: 39
